The molecules listed here are annotated with their pKd.
# Test Target: GDP-bound KRAS wild-type protein (Homo sapiens, UniProt P01116)
# Sequence (P01116 1-188 isoform P01116-2): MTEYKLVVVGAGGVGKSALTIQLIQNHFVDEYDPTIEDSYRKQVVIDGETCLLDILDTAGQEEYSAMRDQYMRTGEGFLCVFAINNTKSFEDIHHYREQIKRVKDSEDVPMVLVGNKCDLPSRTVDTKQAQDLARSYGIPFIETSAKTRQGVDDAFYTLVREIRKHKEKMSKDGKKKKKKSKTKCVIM
# Test Protocol: Binding to KRAS by surface plasmon resonance (SPR), dissociation constant KD
# Run Conditions: 1:1 binding model
Please report pKd as the negative decimal logarithm of the molar concentration, giving only the number.

CCC(CC)[C@H]1C(=O)N(C)[C@H](C(=O)N(C)C)CC(=O)N(C)[C@@H](COC)C(=O)N[C@@H]([C@@H](C)CC)C(=O)N(C)CC(=O)N(C)[C@H]2C/C=C\CCN(C2=O)[C@@H](Cc2ccc(C)cc2)C(=O)N(C)CC(=O)N[C@@H](CCc2ccc(C(F)(F)F)c(OC)c2)C(=O)N2CCOC[C@H]2C(=O)NC2(CC(C)(C)C2)C(=O)N1C | 8.96
CCO[C@@H]1C[C@H]2C(=O)NC3(CC(C)(C)C3)C(=O)N(C)[C@@H](C(CC)CC)C(=O)N(C)[C@H](C(=O)N(C)C)CC(=O)N(C)[C@@H](COC)C(=O)N[C@@H]([C@@H](C)CC)C(=O)N(C3CC3)CC(=O)N(C)[C@H]3C/C=C\CCN(C3=O)[C@@H](CC3CCC(F)(F)CC3)C(=O)N(C)CC(=O)N[C@@H](CCc3ccc(Cl)c(Cl)c3)C(=O)N2C1 | 8.55

Now turn to the next molecule.
Would you mind telling me what pKd value was observed for CC[C@H](C)[C@@H]1NC(=O)[C@H](COC)N(C)C(=O)C[C@@H](C(=O)N(C)C)N(C)C(=O)[C@H](C2CCCCC2)N(C)C(=O)C2(CC(C)(C)C2)NC(=O)[C@@H]2C[C@@H](OC(C)C)CN2C(=O)[C@H](CCc2ccc(Cl)c(Cl)c2)NC(=O)CN(C)C(=O)[C@H](Cc2ccc(C(F)(F)F)cc2)N2CC/C=C\C[C@@H](C2=O)N(C)C(=O)CN(C)C1=O ?
9.54

---

The compounds listed here are annotated with their Kd.
# Test Target: GDP-bound KRAS wild-type protein (Homo sapiens)
# Test Protocol: Binding to KRAS by surface plasmon resonance (SPR), dissociation constant KD
# Run Conditions: Single Cycle Kinetics, 1:1 binding model
Form entry: value (nM) — number only.

Some entries whose results are on file:
CCCN(C)C(=O)[C@@H]1CC(=O)N(C)[C@@H](C2CC2)C(=O)N[C@@H]([C@@H](C)CC)C(=O)N(C)CC(=O)N(C)[C@H]2C/C=C\CCN(C2=O)[C@@H](Cc2ccc(C(F)(F)F)cc2)C(=O)N(C)CC(=O)N[C@@H](CCc2cc(F)c(C(F)(F)F)c(F)c2)C(=O)N2C[C@H](OCC)C[C@H]2C(=O)NC2(CC(C)(C)C2)C(=O)N(C)[C@@H](C2CCCC2)C(=O)N1C | 0.12
CCO[C@@H]1C[C@H]2C(=O)NC3(CCC3)C(=O)N(C)[C@@H](C3CCCC3)C(=O)N(C)[C@H](C(=O)N(C)C)CC(=O)N(C)[C@@H](Cc3cccc(C#N)c3)C(=O)N[C@@H]([C@@H](C)CC)C(=O)N(C)CC(=O)N(C)[C@H]3CCCCCN(C3=O)[C@@H](Cc3ccc(C(F)(F)F)cc3)C(=O)N(C)CC(=O)N[C@@H](CCc3cc(F)c(C(F)(F)F)c(F)c3)C(=O)N2C1 | 0.17

Now turn to the next compound.
Report Kd for CCC[C@H]1C(=O)N[C@@H]([C@@H](C)CC)C(=O)N(C)CC(=O)N(C)[C@H]2C/C=C\CCN(C2=O)[C@@H](Cc2ccc(C)cc2)C(=O)N(C)CC(=O)N[C@@H](CCc2ccc(C(F)(F)F)c(OC)c2)C(=O)N2C[C@H](C)C[C@H]2C(=O)NC2(CCC2)C(=O)N(C)[C@@H](C2CCCC2)C(=O)N(C)[C@H](C(=O)N(C)C)CC(=O)N1C tested on GDP-bound KRAS wild-type protein (Homo sapiens).
0.14
